Below, each of the binders is paired with its reported IC50 (IL13, ng/mL), TF-1 Cells, inhibition of IL13-induced proliferation value.
- measured_target: T1, receptors of IL4/IL13 on TF-1 cells and PBMC (IL4 receptor) (human, UniProt P24394 26-825)
- T1 sequence (looked up): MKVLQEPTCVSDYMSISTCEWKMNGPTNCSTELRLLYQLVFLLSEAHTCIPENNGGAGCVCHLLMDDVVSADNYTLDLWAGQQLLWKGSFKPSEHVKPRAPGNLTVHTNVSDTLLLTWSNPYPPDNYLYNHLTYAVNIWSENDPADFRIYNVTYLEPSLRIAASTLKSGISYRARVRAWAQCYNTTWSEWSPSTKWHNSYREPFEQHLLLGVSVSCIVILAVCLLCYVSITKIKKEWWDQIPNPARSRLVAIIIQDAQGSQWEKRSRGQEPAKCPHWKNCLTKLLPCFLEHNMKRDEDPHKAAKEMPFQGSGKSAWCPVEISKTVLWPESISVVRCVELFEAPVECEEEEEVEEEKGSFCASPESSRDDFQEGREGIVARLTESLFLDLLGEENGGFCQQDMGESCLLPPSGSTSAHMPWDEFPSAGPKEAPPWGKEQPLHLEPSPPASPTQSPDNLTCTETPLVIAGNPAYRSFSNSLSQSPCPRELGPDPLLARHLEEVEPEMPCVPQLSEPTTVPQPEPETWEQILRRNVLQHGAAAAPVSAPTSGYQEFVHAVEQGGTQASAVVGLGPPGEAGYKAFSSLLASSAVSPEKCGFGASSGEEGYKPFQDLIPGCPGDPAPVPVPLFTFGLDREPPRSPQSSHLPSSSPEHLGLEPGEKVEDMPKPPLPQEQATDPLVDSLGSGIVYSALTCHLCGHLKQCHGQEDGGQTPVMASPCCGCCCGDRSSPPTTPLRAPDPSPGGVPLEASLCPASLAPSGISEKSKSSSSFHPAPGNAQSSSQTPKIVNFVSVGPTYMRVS
- measurement_description: cell-based or functional assay
assay_endpoint: IC50 (IL13, ng/mL), TF-1 Cells, inhibition of IL13-induced proliferation

binder	recorded_measurement
IL4R-BA167-IgG4 (antibody, V domains shown, also called IL4RQ6-BA167) VH: QVQLVESGGGVVQPGRSLRLSCAASGFTFSSYAMHWVRQAPGKGLEWVAVISYDGSNKYYADSVKGRFTISRDNSKNTLYLQMNSLRAEDTAVYYCARGLTTVRGVLYWGQGTLVTVSS VL: EIVMTQSPSSLSASLGDRVTITCRASQNIGSRLAWYQQKPGKAPKLLIYKASSLESGVPSRFSGSGSGTEFTLTISSLQPDDFATYYCQQYNSYSWTFGQGTKLEIKR	5 ng/mL
IL4R-BA030-IgG4 (antibody, V domains shown, also called IL4RQ14-BA030) VH: QVQLVESGGGVVQPGRSLRLSCAASGFTFSSYAIHWVRQAPGKGLEWVAVISYDGSKKYYADSVKGRFTISRDNSKNTLYLQMNSLRAEDTAVYYCAREYYYGMDVWGQGTTVTVSS VL: DIVMTQSPSTLSASVGDRVTITCRASQSISNWLAWYQQKPGKAPKRLIYKASSLESGVPSRFSGSGSGTEFTLTISSLQPDDFATYYCQQYNRYFTFGQGTKLEIKR	9 ng/mL
IL4R-BA173-IgG4 (antibody, V domains shown, also called IL4RQ6-BA173) VH: QVQLVESGGGVVQPGRSLRLSCAASGFTFSSYAMHWVRQAPGKGLEWVAVISYDGSNKYYADSVKGRFTISRDNSKNTLYLQMNSLRAEDTAVYYCARGLTTVRGVLYWGQGTLVTVSS VL: DIVMTQSPSTLSASVGDRVTITCRASQSISTRLAWYQQKPGKAPKLLVYWASSLESGVPSRFSGSGSGTEFTLAISSLQPDDFGTYYCQQYTSYSWTFGQGTKLEIKR	6 ng/mL
Dupilumab (antibody, human IgG4 S228P, kappa, V domains shown) VH: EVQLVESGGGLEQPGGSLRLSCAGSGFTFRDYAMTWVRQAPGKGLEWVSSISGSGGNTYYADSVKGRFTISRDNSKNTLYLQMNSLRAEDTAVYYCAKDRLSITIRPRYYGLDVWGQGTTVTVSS VL: DIVMTQSPLSLPVTPGEPASISCRSSQSLLYSIGYNYLDWYLQKSGQSPQLLIYLGSNRASGVPDRFSGSGSGTDFTLKISRVEAEDVGFYYCMQALQTPYTFGQGTKLEIKR	9 ng/mL
